# Species on record: Homo sapiens
# assay_info: Selectivity ratio, Ki for displacement of [3H]UR-MK299 from human neuropeptide Y Y1 receptor in human SK-N-MC cells measured after 90 mins by scintillation counting analysis to Ki for displacement of [3H]UR-KK200 from human neuropeptide Y Y4 receptor expressed in CHO-mtAEQ cells co-expressing Gqi5 measured after 90 mins by scintillation counting analysis
# Assay type: cell-based
Residues, ends and D or L forms follow the SMILES beside them.

{"molecule": "CC(C)C[C@H](NC(=O)[C@H](CCCNC(=N)NC(=O)NCCCN)NC(=O)[C@H](Cc1ccc(O)cc1)NC(=O)[C@H](CCCNC(=N)N)NC(=O)CCC(=O)O)C(=O)N[C@@H](CCCNC(=N)N)C(=O)N[C@@H](Cc1ccc(O)cc1)C(N)=O", "Selectivity ratio": "> 15000"}
{"molecule": "CC(C)C[C@H](NC(=O)[C@@H]1CCCNC(=N)NC(=O)NCCCCNC(=O)CCC(=O)N[C@@H](CCCCN)C(=O)N[C@@H](Cc2ccc(O)cc2)C(=O)N1)C(=O)N[C@@H](CCCNC(=N)N)C(=O)N[C@@H](Cc1ccc(O)cc1)C(N)=O (HELM PEPTIDE1{K.Y.[N=C(NCCC[C@H](N[*:1])C(=O)[*:2])N[*:3]].L.R.Y.[am]}|CHEM1{[O=C(CCC(=O)[*:1])NCCCCNC(=O)[*:2]]}$PEPTIDE1,CHEM1,1:R1-1:R1|PEPTIDE1,CHEM1,3:R3-1:R2$$$V2.0)", "Selectivity ratio": "> 12000"}
{"molecule": "CC(C)C[C@H](NC(=O)[C@@H]1CCCNC(=N)NC(=O)NCCCNC(=O)CCC(=O)N[C@@H](CCCNC(=N)N)C(=O)N[C@@H](Cc2ccc(O)cc2)C(=O)N1)C(=O)N[C@@H](CCCNC(=N)N)C(=O)N[C@@H](Cc1ccc(O)cc1)C(N)=O", "Selectivity ratio": "> 76000"}
{"molecule": "CC(=O)N[C@@H](CCCNC(=N)N)C(=O)N[C@@H](Cc1ccc(O)cc1)C(=O)N[C@@H](CCCNC(=N)N)C(=O)N[C@@H](CC(C)C)C(=O)N[C@@H](CCCNC(=N)N)C(=O)N[C@@H](Cc1ccc(O)cc1)C(N)=O", "Selectivity ratio": "> 830"}
{"molecule": "CC(C)C[C@H](NC(=O)[C@@H]1CCCNC(=N)NC(=O)NCCCCNC(=O)CCC(=O)N[C@@H](CCCNC(=N)N)C(=O)N1)C(=O)N[C@@H](CCCNC(=N)N)C(=O)N[C@@H](Cc1ccc(O)cc1)C(N)=O (HELM PEPTIDE1{R.[N=C(NCCC[C@H](N[*:1])C(=O)[*:2])N[*:3]].L.R.Y.[am]}|CHEM1{[O=C(CCC(=O)[*:1])NCCCCNC(=O)[*:2]]}$PEPTIDE1,CHEM1,1:R1-1:R1|PEPTIDE1,CHEM1,2:R3-1:R2$$$V2.0)", "Selectivity ratio": "> 2100"}
{"molecule": "N=C(N)NCCC[C@H](NC(=O)CCC(=O)O)C(=O)N[C@@H](Cc1ccc(O)cc1)C(=O)N[C@@H](CCCNC(=N)NC(=O)NCCCCN)C(=O)N[C@@H](Cc1c[nH]c2ccccc12)C(=O)N[C@@H](CCCNC(=N)N)C(=O)N[C@@H](Cc1ccc(O)cc1)C(N)=O (single isomer, unassigned)", "Selectivity ratio": "> 60"}
{"molecule": "CC(C)C[C@H](NC(=O)[C@@H]1CCCNC(=N)NC(=O)NCCCCNC(=O)CCC(=O)N[C@@H](CCCNC(=N)N)C(=O)N[C@@H](Cc2c[nH]c3ccccc23)C(=O)N1)C(=O)N[C@@H](CCCNC(=N)N)C(=O)N[C@@H](Cc1ccc(O)cc1)C(N)=O", "Selectivity ratio": "> 300000"}
